# Assay: Cmax in rat at 50 mg/kg, po
# Type: ADME, organism-based
# Parameters: dose 50 mg/kg, route oral
# Test conditions: in vivo
Quantity name: Cmax (µM)

- Chemical structure: "COc1cc2c(CNS(=O)(=O)C(F)(F)F)cnc(C(=O)c3cccc(OC(C)C)c3)c2cc1OC"
  Quantity name: "Cmax"
  Meas value: 112

* * *

# Assay: Photo-degradation of compound in DMSO at 1 mM after 2 hrs by LC/MS analysis
# Assay type: physicochemical
# Test conditions: read-out: Activity
Quantity name: degraded at 2 h, 1000 µM (%)

- Chemical structure: "COc1cc2c(CNS(=O)(=O)C(F)(F)F)cnc(C(=O)c3cccc(OC(C)C)c3)c2cc1OC"
  Quantity name: "degraded at 2 h, 1000 µM"
  Unit tag: "%"
  Meas value: 30

* * *

# Assay: Oral bioavailability in rat at 50 mg/kg
# Format: ADME, organism-based
# Test conditions: in vivo
Quantity name: bioavailability

- Chemical structure: "COc1cc2c(CNS(=O)(=O)C(F)(F)F)cnc(C(=O)c3cccc(OC(C)C)c3)c2cc1OC"
  Quantity name: "bioavailability"
  Meas value: "91%"

* * *

# Assay: Volume of distribution in rat at 10 mg/kg, iv
# Format: ADME, organism-based
# Design: dose 10 mg/kg, route intravenous
# Test conditions: in vivo
Quantity name: Vd

- Chemical structure: "COc1cc2c(CNS(=O)(=O)C(F)(F)F)cnc(C(=O)c3cccc(OC(C)C)c3)c2cc1OC"
  Meas value: "0.4 L/kg"

* * *

# Assay: Tmax in rat at 50 mg/kg, po
# Assay type: ADME, organism-based
# Parameters: dose 50 mg/kg, route oral
# Test conditions: in vivo

- Chemical structure: "COc1cc2c(CNS(=O)(=O)C(F)(F)F)cnc(C(=O)c3cccc(OC(C)C)c3)c2cc1OC"
  Tmax / h: 1

* * *

# Assay: Half life in rat at 10 mg/kg, iv
# Type: ADME, organism-based
# Parameters: dose 10 mg/kg, route intravenous
# Test conditions: in vivo

- Chemical structure: "COc1cc2c(CNS(=O)(=O)C(F)(F)F)cnc(C(=O)c3cccc(OC(C)C)c3)c2cc1OC"
  half-life (h): 1.68

* * *

# Assay: Photo-degradation of compound in DMSO at 1 mM after 2 hrs by HPLC/UV spectrophotometric analysis
# Format: physicochemical
# Test conditions: read-out: Activity

- Chemical structure: "COc1cc2c(C(=O)O)cnc(C(=O)c3cc(OC(C)C)ccc3F)c2cc1OC"
  degraded at 2 h, 1000 µM: "22%"
- Chemical structure: "COc1cc2c(C(=O)O)cnc(C(=O)c3cccc(OC(C)C)c3)c2cc1OC"
  degraded at 2 h, 1000 µM: "75.9%"
- Chemical structure: "COc1ccc(F)c(C(=O)c2ncc(C(=O)O)c3cc(OC)c(OC)cc23)c1"
  degraded at 2 h, 1000 µM: "25.4%"
- Chemical structure: "COc1cc2c(C(=O)O)cnc(C(=O)c3c(F)cccc3F)c2cc1OC"
  degraded at 2 h, 1000 µM: "0%"

* * *

# Assay: Lipophilicity, log D of the compound at pH 7.2
# Format: physicochemical
# Test conditions: buffer
Quantity name: logD

- Chemical structure: "COc1cc2c(CNS(=O)(=O)C(F)(F)F)cnc(C(=O)c3cccc(OC(C)C)c3)c2cc1OC"
  Quantity name: "logD"
  Meas value: 2.89

* * *

# Assay: AUC in rat at 50 mg/kg, po
# Assay type: ADME, organism-based
# Design: dose 50 mg/kg, route oral
# Test conditions: plasma
Quantity name: AUC (µg·h/mL)

- Chemical structure: "COc1cc2c(CNS(=O)(=O)C(F)(F)F)cnc(C(=O)c3cccc(OC(C)C)c3)c2cc1OC"
  Quantity name: "AUC"
  Meas value: 239
